Sourced from patent US7709516B2

system: Shionogi mouse mammary carcinoma cells; experiment: Androgenic/antiandrogenic activity: inhibition of DHT-stimulated Shionogi cell number; format: cell-based; details: Mus musculus; Table 1; DHT-stimulated Shionogi cell number; read-out: Shionogi Antiandrogenic Activity IC50
Quick reference: IC50 of the listed items.
Report the figure in nM without appending any unit label.

Past entries and their recorded results:
{"columns": ["compound", "property-name", "unit-annotation", "value-reported"],
 "data": [
  ["CC(C)(O)C(=O)Nc1ccc([N+](=O)[O-])c(C(F)(F)F)c1 [OH-FLU, hydroxyflutamide, reference compound]", "IC50", "nM", 54.3],
  ["CCCC(NC(CC)CC)c1cccc(OCCN2C(=S)N(c3ccc(C#N)c(C(F)(F)F)c3)C(=O)C2(C)C)c1 (stereo not shown)", "IC50", "nM", 101],
  ["CCCC(NC(CC)CC)c1cccc(OCCCCN2C(=S)N(c3ccc(C#N)c(C(F)(F)F)c3)C(=O)C2(C)C)c1 (stereo not shown)", "IC50", "nM", 157]
]}

Turning now to a further record.
### Prompt Indicate its recorded IC50; the compound in question is CN(C)Cc1ccc(OCCCN2C(=O)N(c3ccc(C#N)c(C(F)(F)F)c3)C(=O)C2(C)C)cc1
### Response 118

* * *

molecular target: Human Androgen Receptor (Homo sapiens, UniProt P10275); experiment: Androgen receptor binding assay ([3H]R1881, HAP) in cytosol of HEK-293 cells transfected with hAR; conditions: Table 1; relative to R1881 = 100, transfected cells
Sequence (P10275 whole entry): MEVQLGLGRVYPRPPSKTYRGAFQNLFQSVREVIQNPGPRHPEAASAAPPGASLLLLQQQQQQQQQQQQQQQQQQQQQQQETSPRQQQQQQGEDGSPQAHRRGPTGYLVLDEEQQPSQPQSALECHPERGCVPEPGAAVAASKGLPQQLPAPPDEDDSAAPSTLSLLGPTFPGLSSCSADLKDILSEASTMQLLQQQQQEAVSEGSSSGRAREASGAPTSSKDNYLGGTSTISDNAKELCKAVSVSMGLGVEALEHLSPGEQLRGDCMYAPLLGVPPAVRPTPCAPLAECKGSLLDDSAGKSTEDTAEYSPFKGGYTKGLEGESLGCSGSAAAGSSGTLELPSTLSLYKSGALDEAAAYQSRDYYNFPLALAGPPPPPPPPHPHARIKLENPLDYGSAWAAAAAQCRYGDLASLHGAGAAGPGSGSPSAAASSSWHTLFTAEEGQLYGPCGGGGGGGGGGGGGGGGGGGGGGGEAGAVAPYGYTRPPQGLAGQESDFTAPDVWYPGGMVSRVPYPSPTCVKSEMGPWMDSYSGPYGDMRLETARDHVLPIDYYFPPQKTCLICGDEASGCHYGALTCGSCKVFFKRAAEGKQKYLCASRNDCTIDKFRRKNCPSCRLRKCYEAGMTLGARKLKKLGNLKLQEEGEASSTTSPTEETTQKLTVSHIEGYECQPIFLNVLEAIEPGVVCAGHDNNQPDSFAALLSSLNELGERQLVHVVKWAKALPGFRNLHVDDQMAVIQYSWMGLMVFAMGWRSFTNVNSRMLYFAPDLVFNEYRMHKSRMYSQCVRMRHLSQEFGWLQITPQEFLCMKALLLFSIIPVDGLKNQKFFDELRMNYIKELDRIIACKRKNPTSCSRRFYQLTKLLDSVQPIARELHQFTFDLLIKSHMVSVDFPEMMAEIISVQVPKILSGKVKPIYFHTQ
Label Satisfied when Human Androgen Receptor Binding (%) RBA R1881 = 100 >= 10%; otherwise Not satisfied.

# example entries with known answers
{"columns": ["compound", "assigned-label"],
 "data": [
  ["CC1(C)C(=O)N(c2ccc(C#N)c(C(F)(F)F)c2)C(=S)N1CCCOc1ccc(CN2CCCC2)cc1", "Satisfied"],
  ["CC1(C)C(=O)N(c2ccc(C#N)c(C(F)(F)F)c2)C(=S)N1CCCOc1ccc(S(C)(=O)=O)cc1", "Not satisfied"],
  ["CCS(=O)(=O)c1ccc(OCCCN2C(=S)N(c3ccc(C#N)c(C(F)(F)F)c3)C(=O)C2(C)C)cc1", "Satisfied"],
  ["CCNCc1ccc(OCCCN2C(=S)N(c3ccc(C#N)c(C(F)(F)F)c3)C(=O)C2(C)C)cc1", "Satisfied"],
  ["COC(=O)c1ccc(OCCCN2C(=S)N(c3ccc(C#N)c(C(F)(F)F)c3)C(=O)C2(C)C)cc1", "Satisfied"]
]}

### Prompt Could you tell me if the measured Human Androgen Receptor Binding (%) RBA R1881 = 100 of Cc1cc(CN2CCCC2)ccc1OCCCN1C(=S)N(c2ccc(C#N)c3ccccc23)C(=O)C1(C)C reaches 10% or more?
### Response Satisfied

### Prompt Is the recorded value of Human Androgen Receptor Binding (%) RBA R1881 = 100 equal to or greater than 10% for this compound? CCC(NC(C)C)c1ccc(OCCCN2C(=S)N(c3ccc(C#N)c(C(F)(F)F)c3)C(=O)C2(C)C)cc1 (stereo not drawn)
### Response Satisfied

### Prompt In plain terms: is recorded Human Androgen Receptor Binding (%) RBA R1881 = 100 at least 10% for CCCC(NC(CC)CC)c1cccc(OCCN2C(=S)N(c3ccc(C#N)c(C(F)(F)F)c3)C(=O)C2(C)C)c1 (stereo not drawn) ?
### Response Not satisfied
